- METHOD_SUMMARY: qHTS assay to identify small molecule agonists of the estrogen related receptor signaling pathway with the pleiotropic PPARgamma coactivator (PGC) from Tox21 10K library (AID 1224842); further: nearly all actives have a fitted effect of over 15% in size
- CONDITIONS: PGC/ERR reporter cell line, luciferase ONE-Glo, 18 h; series mostly up to 92.4 µM
Results filed as inconclusive are left out. The source made the active and inactive calls. The call rests on the fitted dose curve; in most records, active means well fitted activation curve with a large enough effect in the repeat runs; inconclusive means weak or mixed curves, or effect the other way; inactive means no such curve, though single readings can be large or run the other way.
Classes used: Y for active, N for inactive

{"COMPOUND": "COc1cc2[nH]c(=O)[nH]c(=O)c2cc1OC", "CLASSIFICATION": "N"}
{"COMPOUND": "CCCCCCOC(=O)C(C)C", "CLASSIFICATION": "N"}
{"COMPOUND": "Cc1cc(O)c2c(O)c3c(O)cccc3cc2c1", "CLASSIFICATION": "N"}
{"COMPOUND": "CC(=O)Oc1ccc2c(c1)CC[C@@H]1[C@@H]2CC[C@]2(C)[C@@H](O)CC[C@@H]12", "CLASSIFICATION": "N"}
{"COMPOUND": "Cc1cc(S(=O)(=O)O)ccc1N=Nc1c(O)ccc2ccccc12", "CLASSIFICATION": "N"}
{"COMPOUND": "C=CC(=C)CCCC(C)(C)OC(C)=O", "CLASSIFICATION": "N"}
{"COMPOUND": "NC(=O)Nc1ccc(Cl)c(Cl)c1", "CLASSIFICATION": "N"}
{"COMPOUND": "CCC(Cc1ccccc1)(C(=O)c1ccc(N2CCOCC2)cc1)N(C)C (stereo not drawn)", "CLASSIFICATION": "N"}
{"COMPOUND": "CC(=O)[C@H]1CC[C@H]2[C@@H]3C[C@H](C)C4=CC(=O)CC[C@]4(C)[C@H]3[C@@H](O)C[C@]12C", "CLASSIFICATION": "N"}
{"COMPOUND": "O=S(=O)(c1ccccc1)c1ccc(Cl)cc1", "CLASSIFICATION": "N"}
{"COMPOUND": "CO[C@H]1C=CO[C@@]2(C)Oc3c(C)c(O)c4c(O)c(c5c(c4c3C2=O)=NC2(CCN(CC(C)C)CC2)N=5)NC(=O)/C(C)=C\\C=C/[C@H](C)[C@H](O)[C@@H](C)[C@@H](O)[C@@H](C)[C@H](OC(C)=O)[C@@H]1C", "CLASSIFICATION": "N"}
{"COMPOUND": "CCCOc1ccc(S(=O)(=O)N2CCN(CC)CC2)cc1-c1nc2c(CC)n(Cc3ccccn3)nc2c(=O)[nH]1", "CLASSIFICATION": "N"}
{"COMPOUND": "C=CC(C)(O)CCCC(C)CCCC(C)CCCC(C)C (stereo not drawn)", "CLASSIFICATION": "N"}
{"COMPOUND": "Nc1ccc(S(=O)(=O)O)c(N)c1", "CLASSIFICATION": "N"}
{"COMPOUND": "CC(=O)OCC(=O)[C@H]1CC[C@H]2[C@@H]3CCC4=CC(=O)CC[C@]4(C)[C@H]3CC[C@]12C", "CLASSIFICATION": "N"}
{"COMPOUND": "COc1cc2c(cc1OC)-c1cc(=Nc3c(C)cc(C)cc3C)n(C)c(=O)n1CC2", "CLASSIFICATION": "Y"}
{"COMPOUND": "Cc1nc2ccccn2c(=O)c1CCN1CCC(C(=O)c2ccc(F)cc2)CC1", "CLASSIFICATION": "N"}
{"COMPOUND": "CC(C)(C)C(=O)C(Oc1ccc(Cl)cc1)n1ccnc1 (stereo not drawn)", "CLASSIFICATION": "N"}
{"COMPOUND": "NC(=O)N(O)[C@@H]1C=C[C@H](Oc2cccc(Oc3ccc(F)cc3)c2)C1", "CLASSIFICATION": "Y"}
{"COMPOUND": "c1cc[c]([Bi]([c]2ccccc2)[c]2ccccc2)cc1", "CLASSIFICATION": "N"}
{"COMPOUND": "CC(C)CCCCCOC(=O)CCCCC(=O)OCCCCCC(C)C", "CLASSIFICATION": "N"}
{"COMPOUND": "OC/C(Br)=C(\\Br)CO", "CLASSIFICATION": "N"}
{"COMPOUND": "Oc1cc(O)c(Cl)cc1Cl", "CLASSIFICATION": "N"}

----------
- METHOD_SUMMARY: qHTS assay to identify small molecule antagonists of the sonic hedgehog signaling (Shh) pathway (AID 1259369); further: nearly all actives have a fitted effect of over 45% in size
- CONDITIONS: NIH/3T3 Gli1-Luc reporter, Shh antagonist, luminescence 24 h; series mostly up to 92.4 µM
Results filed as inconclusive are left out. Activity calls are given as the source filed them. Calls come from the whole dose curve.
Classes used: active, inactive

{"COMPOUND": "O=C(O)c1snc(Cl)c1Cl", "CLASSIFICATION": "inactive"}
{"COMPOUND": "CCOc1cc(N)c(Cl)cc1C(=O)NCC1CN(Cc2ccc(F)cc2)CCO1 (centres undefined)", "CLASSIFICATION": "inactive"}
{"COMPOUND": "[O]=[Bi]", "CLASSIFICATION": "active"}
{"COMPOUND": "C=CC(C)(C)CC(=O)OC", "CLASSIFICATION": "active"}
{"COMPOUND": "COC(=O)Nc1nc2ccc(C(=O)c3cccs3)cc2[nH]1", "CLASSIFICATION": "active"}
{"COMPOUND": "CCCCCCCC/C=C\\CCCCCCCC(=O)OC", "CLASSIFICATION": "inactive"}
{"COMPOUND": "CC(CCO)CCc1ccccc1 (centres undefined)", "CLASSIFICATION": "inactive"}
{"COMPOUND": "CCCCOC(=O)CCS", "CLASSIFICATION": "inactive"}
{"COMPOUND": "CC1=NN(c2ccc(C(=O)O)cc2)C(=O)C1", "CLASSIFICATION": "inactive"}
{"COMPOUND": "CCCCCCCCCCOS(=O)(=O)O", "CLASSIFICATION": "inactive"}
{"COMPOUND": "CC[C@H](NC(=O)c1cc(F)ccc1NS(=O)(=O)c1cccc2cccnc12)c1ccccc1", "CLASSIFICATION": "inactive"}
{"COMPOUND": "CCn1cc(C(=O)O)c(=O)c2cc(F)c(N3CCNCC3)nc21", "CLASSIFICATION": "inactive"}
{"COMPOUND": "C[Si]1(C)O[Si](C)(C)O[Si](C)(C)O1", "CLASSIFICATION": "inactive"}
{"COMPOUND": "O=C(Nc1ccccc1)Nc1ccccc1", "CLASSIFICATION": "inactive"}
{"COMPOUND": "C=CC(C)=CCC=C(C)C", "CLASSIFICATION": "inactive"}
{"COMPOUND": "CC1=C(/C=C/C(C)=C\\C=C\\C(C)=C\\C(=O)O)C(C)(C)CCC1", "CLASSIFICATION": "inactive"}
{"COMPOUND": "CC(CCc1ccc2c(c1)OCO2)NN (centres undefined)", "CLASSIFICATION": "inactive"}
{"COMPOUND": "CCC(C(=O)OCCOCCN(CC)CC)c1ccccc1 (centres undefined)", "CLASSIFICATION": "inactive"}
{"COMPOUND": "Oc1ccc(Nc2ccccc2)cc1", "CLASSIFICATION": "inactive"}
{"COMPOUND": "CO[C@H]1C=CO[C@@]2(C)Oc3c(C)c(O)c4c(O)c(c5c(c4c3C2=O)=NC2(CCN(CC(C)C)CC2)N=5)NC(=O)/C(C)=C\\C=C/[C@H](C)[C@H](O)[C@@H](C)[C@@H](O)[C@@H](C)[C@H](OC(C)=O)[C@@H]1C", "CLASSIFICATION": "active"}
{"COMPOUND": "COC(=O)c1cc(Cl)ccc1NS(=O)(=O)C(F)(F)F", "CLASSIFICATION": "inactive"}
{"COMPOUND": "CC1=CC(=O)CC(C)(C)C1(O)/C=C/C(C)=C\\C(=O)O (centres undefined)", "CLASSIFICATION": "inactive"}
{"COMPOUND": "CC(=O)OCC(=O)[C@H]1CC[C@H]2[C@@H]3CCC4=CC(=O)CC[C@]4(C)[C@H]3CC[C@]12C", "CLASSIFICATION": "active"}
{"COMPOUND": "Cc1cc(C(=C2C=CC(=Nc3ccc(S(=O)(=O)O)cc3S(=O)(=O)O)C=C2)c2ccc(Nc3ccc(S(=O)(=O)O)cc3)cc2)ccc1N", "CLASSIFICATION": "inactive"}

----------
- TARGET: Estrogen receptor (Homo sapiens)
- METHOD_SUMMARY: qHTS assay to identify small molecule antagonists of the estrogen receptor alpha (ER-alpha) signaling pathway (AID 743069)
- CONDITIONS: HEK293 ER-alpha-UAS-bla, beta-lactamase ratio, antagonist mode; series mostly up to 69.4 µM
Activity calls are given as the source filed them. Calls come from the whole dose curve; as a rule, active = well fitted curve in the direction sought with a large enough effect in the signal ratio in the repeat runs (not every such curve was filed as active); inconclusive = weak or mixed curves, or effect the other way; inactive = no such curve, though single readings can be large or run the other way; the % refers to the signal ratio.
Classes used: y = active, n = inactive

{"CHEMICAL_SMILES": "O=S(=O)(c1ccccc1)c1ccc(Cl)cc1", "CLASSIFICATION": "n"}
{"CHEMICAL_SMILES": "Nc1ccc(S(=O)(=O)O)cc1", "CLASSIFICATION": "n"}
{"CHEMICAL_SMILES": "Cc1nccn1-c1ccc(Sc2cccc(C3(C(N)=O)CCOCC3)c2)cc1", "CLASSIFICATION": "y"}
{"CHEMICAL_SMILES": "CCCCCCCCCCCCCCC[C@H](O)[C@@H](N)CO", "CLASSIFICATION": "n"}
{"CHEMICAL_SMILES": "CCCOc1ccc(S(=O)(=O)N2CCN(CC)CC2)cc1-c1nc2c(CC)n(Cc3ccccn3)nc2c(=O)[nH]1", "CLASSIFICATION": "n"}
{"CHEMICAL_SMILES": "CCC(=O)Oc1ccc(/C(CC)=C(\\CC)c2ccc(OC(=O)CC)cc2)cc1", "CLASSIFICATION": "y"}
{"CHEMICAL_SMILES": "CCOC(=O)c1ccccc1C", "CLASSIFICATION": "n"}
{"CHEMICAL_SMILES": "NC(=O)N(O)[C@@H]1COc2cc(OCc3ccccc3)ccc21", "CLASSIFICATION": "n"}
